assayed target: NKp30 on human NK cells (human) (UniProt O14931)
Sequence (O14931 19-201): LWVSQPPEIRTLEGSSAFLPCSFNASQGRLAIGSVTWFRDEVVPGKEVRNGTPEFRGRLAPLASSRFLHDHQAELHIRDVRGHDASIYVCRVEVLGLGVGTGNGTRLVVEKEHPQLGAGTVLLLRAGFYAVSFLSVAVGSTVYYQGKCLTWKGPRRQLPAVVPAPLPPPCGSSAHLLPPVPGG
experiment: cell-based or functional assay
value kind: EC50 (pM), A431 lysis with PBMC
The figure you give is taken to be in pM; do not add the unit.

Worked examples, 3 binders total:
{"columns": ["binder", "EC50 (pM), A431 lysis with PBMC"],
 "data": [
  ["ΔB7-H6_S3#24-SEED-PGLALA (bispecific antibody, part only; not given: SEED Fc chains and hu225 Fab, part only) chain, part: DLKVEMMAGGTQITPLNDNVTIFCNIFYSQPLNITIMGITWFWKSLTFDKEVKVFEFYGDHQEAFRPGAIVSPWRLKSGDASLRLPGIQLEEAGEYRCEVVVTPYKAQGTVQLEVVASPAS", 9.3],
  ["ΔB7-H6_S3#19-SEED-PGLALA (bispecific antibody, part only; not given: SEED Fc chains and hu225 Fab, part only) chain, part: DLKVEMMAGGTQITPLNDNVTIFCNIFYSQPLNITQMGITWFWKSLTFDKEVKVFEFWGDHQEAFRPGAIVSPWRLKSGDASLRLPGIQLEEAGEYRCEVVVTPYKAQGTVQLEVVASPAS", 240],
  ["ΔB7-H6_S3#26-SEED-PGLALA (bispecific antibody, part only; not given: SEED Fc chains and hu225 Fab, part only) chain, part: DLKVEMMAGGTQITPLNDNVTIFCNIFYSQPLNITTMGITWFWKSLTFDKEVKVFEFWDDHQEAFRPGAIVSPWRLKSGDASLRLPGIQLEEAGEYRCEVVVTPYKAQGTVQLEVVASPAS", 22.7]
]}

For the next question, use this binder.
Q: For ΔB7-H6_S2#7-SEED-PGLALA (bispecific antibody, part only; not given: SEED Fc chains and hu225 Fab, part only) chain, part: DLKVEMMAGGTQITPLNDNVTIFCNIFYSQPLNITSMGITWFWKSLTFDKEVKVFEFYGDHQEAFRPGAIVSPWRLKSGDASLRLPGIQLEEAGEYRCEVIVTPYKAQGTVQLEVVTSPAS , what is its reported EC50 (pM), A431 lysis with PBMC?
Result: 170
